Every entry's value here was drawn from paper PMC8970883.

assay_info: Pharmacokinetic study in rats after intragastric administration of Farfarae Flos extract (plasma, LC-MS/MS)
Format: in vivo
condition_set: male, rat, plasma, po, 7.8 g/kg, oral Farfarae Flos extract 7.8 g·kg^−1, mean ± SD
assay_readout: Cmax
Answer format reminder: number followed by unit.

Worked examples, 2 compounds total:
- input_smiles: "O=c1c(O[C@@H]2O[C@H](CO)[C@@H](O)[C@H](O)[C@H]2O)c(-c2ccc(O)c(O)c2)oc2cc(O)cc(O)c12"
  result: "10.2 ng/mL"
- input_smiles: "C[C@@H]1O[C@@H](OC[C@H]2O[C@@H](Oc3c(-c4ccc(O)c(O)c4)oc4cc(O)cc(O)c4c3=O)[C@H](O)[C@@H](O)[C@@H]2O)[C@H](O)[C@H](O)[C@H]1O"
  result: "76.7 ng/mL"

Now for the compound whose Cmax we want.
Record O=C(O)/C=C/c1ccc(O)c(O)c1 . Reported Cmax: 106 ng/mL

----------
assay_info: Pharmacokinetic study in rats after intragastric administration of Farfarae Flos extract (plasma, LC-MS/MS)
Assay type: in vivo
condition_set: male; rat plasma, oral Farfarae Flos extract 7.8 g·kg^−1, mean ± SD; read-out: MRT(0–24h)
MRT last for assorted compounds
Write it as a number; the unit h goes unstated.

Worked examples, 3 compounds total:
- input_smiles: "C[C@@H]1O[C@@H](OC[C@H]2O[C@@H](Oc3c(-c4ccc(O)c(O)c4)oc4cc(O)cc(O)c4c3=O)[C@H](O)[C@@H](O)[C@@H]2O)[C@H](O)[C@H](O)[C@H]1O"
  unit_abbreviation: "h"
  MRT last: 2.79
- input_smiles: "C=C1[C@H](OC(=O)/C=C(\\C)CC)C[C@@H](C(C)C)[C@@H]2[C@@H]([C@@H](C)OC(C)=O)C(=O)C[C@@H]12"
  unit_abbreviation: "h"
  MRT last: 2.42
- input_smiles: "O=C(/C=C/c1ccc(O)c(O)c1)O[C@H]1[C@H](O)C[C@](O)(C(=O)O)C[C@H]1O"
  unit_abbreviation: "h"
  MRT last: 5.02

Record O=C(/C=C/c1ccc(O)c(O)c1)O[C@@H]1C[C@](O)(C(=O)O)C[C@@H](O)[C@H]1O . Reported MRT last: 4.63

----------
Long stability Remain (%) for assorted molecules
assay_info: Stability of QC samples in rat plasma (24 h, freeze-thaw, 4 weeks)
Assay type: in vitro ADME
condition_set: medium concentration level (100-1000 ng·mL^−1), stored at −80°C for 4 weeks, six replicates
Write it as a number; the unit % goes unstated.

Worked examples, 3 molecules total:
- molecule: "O=C(O)/C=C/c1ccc(O)c(O)c1"
  Long stability Remain (%): 109
- molecule: "O=C(/C=C/c1ccc(O)c(O)c1)O[C@H]1[C@H](O)C[C@](O)(C(=O)O)C[C@H]1O"
  Long stability Remain (%): 98.6
- molecule: "O=c1c(O[C@@H]2O[C@H](CO)[C@@H](O)[C@H](O)[C@H]2O)c(-c2ccc(O)c(O)c2)oc2cc(O)cc(O)c12"
  Long stability Remain (%): 105

Record O=C(C=Cc1ccc(O)c(O)c1)OC1CC(O)(C(=O)O)CC(O)C1OC(=O)C=Cc1ccc(O)c(O)c1 (centres unmarked) . Reported Long stability Remain (%): 108

Record C=C1[C@H](OC(=O)/C=C(\C)CC)C[C@@H](C(C)C)[C@@H]2[C@@H]([C@@H](C)OC(C)=O)C(=O)C[C@@H]12 . Reported Long stability Remain (%): 107

----------
assay_info: Pharmacokinetic study in rats after intragastric administration of Farfarae Flos extract (plasma, LC-MS/MS)
Format: in vivo
condition_set: rat plasma, oral Farfarae Flos extract 7.8 g·kg^−1, mean ± SD
Experimental: A high-performance liquid chromatography instrument was used to separate three types of compounds (Agilent 1200 series, USA). The HPLC instrument is composed of four parts; a G1322A degasser, G1312A Bin Pump, G1367B auto-sampler, and G1316A thermostatic column compartment. […] Quantitative analysis of all samples was performed on Sciex API 3200 with an electrospray ionization (ESI) source. […] Ten analyzed compounds and three ISs were optimized during multiple reactions monitoring (MRM). […]
Label true (1) when AUC(0–∞) is at or above 1000 ng/mL ∗ h; anything below gets false (0).

Known results for molecules:
- molecule: "O=C(O)/C=C/c1ccc(O)c(O)c1"
  group: "false (0)"
- molecule: "O=C(/C=C/c1ccc(O)c(O)c1)O[C@H]1[C@H](O)C[C@](O)(C(=O)O)C[C@H]1O"
  group: "true (1)"
- molecule: "O=C(C=Cc1ccc(O)c(O)c1)OC1CC(O)(C(=O)O)CC(O)C1OC(=O)C=Cc1ccc(O)c(O)c1 (stereo not shown)"
  group: "false (0)"
- molecule: "C=C1[C@H](OC(=O)/C=C(\\C)CC)C[C@@H](C(C)C)[C@@H]2[C@@H]([C@@H](C)OC(C)=O)C(=O)C[C@@H]12"
  group: "false (0)"
- molecule: "O=C(/C=C/c1ccc(O)c(O)c1)O[C@@H]1C[C@](O)(C(=O)O)C[C@@H](O)[C@H]1O"
  group: "true (1)"

Switching to the query record.
*Q* Kindly determine if AUC(0–∞) recorded for O=c1c(O[C@@H]2O[C@H](CO)[C@@H](O)[C@H](O)[C@H]2O)c(-c2ccc(O)c(O)c2)oc2cc(O)cc(O)c12 is above or exactly 1000 ng/mL ∗ h.
*A* false (0)

----------
assay_info: Pharmacokinetic study in rats after intragastric administration of Farfarae Flos extract (plasma, LC-MS/MS)
Type: in vivo
condition_set: rat plasma, oral Farfarae Flos extract 3.9 g·kg^−1, mean ± SD
Method: A high-performance liquid chromatography instrument was used to separate three types of compounds (Agilent 1200 series, USA). The HPLC instrument is composed of four parts; a G1322A degasser, G1312A Bin Pump, G1367B auto-sampler, and G1316A thermostatic column compartment. […] Quantitative analysis of all samples was performed on Sciex API 3200 with an electrospray ionization (ESI) source. […] Ten analyzed compounds and three ISs were optimized during multiple reactions monitoring (MRM). […]
assay_readout: AUC(0–24h)
Answer format reminder: number followed by unit.

Record O=c1c(O[C@@H]2O[C@H](CO)[C@@H](O)[C@H](O)[C@H]2O)c(-c2ccc(O)c(O)c2)oc2cc(O)cc(O)c12 . Reported AUC(0–24h): 7.284 ± 5.643 ng/mL ∗ h

Record O=C(O)/C=C/c1ccc(O)c(O)c1 . Reported AUC(0–24h): 338.9 ± 246.4 ng/mL ∗ h

Record C[C@@H]1O[C@@H](OC[C@H]2O[C@@H](Oc3c(-c4ccc(O)c(O)c4)oc4cc(O)cc(O)c4c3=O)[C@H](O)[C@@H](O)[C@@H]2O)[C@H](O)[C@H](O)[C@H]1O . Reported AUC(0–24h): 39.49 ± 59.42 ng/mL ∗ h

Record O=C(/C=C/c1ccc(O)c(O)c1)O[C@@H]1C[C@](O)(C(=O)O)C[C@@H](O)[C@H]1O . Reported AUC(0–24h): 1425 ± 1046 ng/mL ∗ h

Record O=C(/C=C/c1ccc(O)c(O)c1)O[C@@H]1C[C@@](O)(C(=O)O)C[C@@H](O)[C@@H]1O . Reported AUC(0–24h): 210.2 ± 126.4 ng/mL ∗ h

----------
Tmax for assorted molecules
assay_info: Pharmacokinetic study in rats after intragastric administration of Farfarae Flos extract (plasma, LC-MS/MS)
Assay type: in vivo
condition_set: male; rat plasma, oral Farfarae Flos extract 3.9 g·kg^−1, mean ± SD
Experimental: A high-performance liquid chromatography instrument was used to separate three types of compounds (Agilent 1200 series, USA). The HPLC instrument is composed of four parts; a G1322A degasser, G1312A Bin Pump, G1367B auto-sampler, and G1316A thermostatic column compartment. […] Quantitative analysis of all samples was performed on Sciex API 3200 with an electrospray ionization (ESI) source. […] Ten analyzed compounds and three ISs were optimized during multiple reactions monitoring (MRM). […]
Write it as a number; the unit min goes unstated.

- molecule: "O=C(O)/C=C/c1ccc(O)c(O)c1"
  Tmax [min]: 13.8
- molecule: "O=C(C=Cc1ccc(O)c(O)c1)OC1CC(O)(C(=O)O)CC(O)C1OC(=O)C=Cc1ccc(O)c(O)c1 (stereo not shown)"
  Tmax [min]: 33.6
- molecule: "O=c1c(O[C@@H]2O[C@H](CO)[C@@H](O)[C@H](O)[C@H]2O)c(-c2ccc(O)c(O)c2)oc2cc(O)cc(O)c12"
  Tmax [min]: 26.4
- molecule: "C=C1[C@H](OC(=O)/C=C(\\C)CC)C[C@@H](C(C)C)[C@@H]2[C@@H]([C@@H](C)OC(C)=O)C(=O)C[C@@H]12"
  Tmax [min]: 26.4
- molecule: "O=C(/C=C/c1ccc(O)c(O)c1)O[C@@H]1C[C@](O)(C(=O)O)C[C@@H](O)[C@H]1O"
  Tmax [min]: 38.4
- molecule: "O=C(/C=C/c1ccc(O)c(O)c1)O[C@H]1[C@H](O)C[C@](O)(C(=O)O)C[C@H]1O"
  Tmax [min]: 38.4

Now for the molecule whose Tmax we want.
Record O=C(/C=C/c1ccc(O)c(O)c1)O[C@@H]1C[C@@](O)(C(=O)O)C[C@@H](O)[C@@H]1O . Reported Tmax: 41.4
